Each entry below carries its recorded IC50.
targetOrSystem: AHR (Homo sapiens, UniProt P35869)
Construct: U87 MG glioblastoma cells (ATCC #HTB-14) endogenously expressing AHR; endogenous in cells; host or cells: U87 MG glioblastoma cells (ATCC #HTB-14)
Sequence (P35869 11-848): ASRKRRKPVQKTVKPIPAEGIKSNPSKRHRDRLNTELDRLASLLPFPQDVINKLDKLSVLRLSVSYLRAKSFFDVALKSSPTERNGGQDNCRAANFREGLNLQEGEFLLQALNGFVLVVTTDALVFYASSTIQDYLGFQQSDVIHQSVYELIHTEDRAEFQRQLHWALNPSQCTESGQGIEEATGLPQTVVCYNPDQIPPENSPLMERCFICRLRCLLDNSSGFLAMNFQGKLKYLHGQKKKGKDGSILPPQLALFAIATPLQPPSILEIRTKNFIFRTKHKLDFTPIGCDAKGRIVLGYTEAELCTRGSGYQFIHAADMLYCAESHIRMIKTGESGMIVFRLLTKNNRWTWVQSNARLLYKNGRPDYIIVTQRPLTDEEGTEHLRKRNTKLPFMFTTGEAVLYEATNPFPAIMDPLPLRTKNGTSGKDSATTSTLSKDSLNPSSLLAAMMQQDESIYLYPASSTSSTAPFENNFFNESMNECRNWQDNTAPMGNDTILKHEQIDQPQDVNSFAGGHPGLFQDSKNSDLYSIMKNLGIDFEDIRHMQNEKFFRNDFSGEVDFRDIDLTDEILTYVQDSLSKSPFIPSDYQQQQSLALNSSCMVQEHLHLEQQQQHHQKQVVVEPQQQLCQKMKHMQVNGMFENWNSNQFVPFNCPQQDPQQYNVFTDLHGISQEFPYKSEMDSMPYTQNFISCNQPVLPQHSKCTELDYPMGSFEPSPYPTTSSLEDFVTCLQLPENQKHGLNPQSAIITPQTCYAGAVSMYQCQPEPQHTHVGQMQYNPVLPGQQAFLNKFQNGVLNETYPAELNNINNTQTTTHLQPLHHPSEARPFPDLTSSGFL
procedureDetails: In vitro assay 1: antagonism in human cell line (AHR transactivation, firefly luciferase reporter, kynurenic acid prestimulated)
Assay type: cell-based
conditions: AHR Antagonism Human IC50 [M]
# output: bare number, implied unit M

Completed entries (count: 5):
| compound | IC50 (M) |
| --- | --- |
| C[C@@H](Nc1nc2ccccc2c2nc(-c3cc(Cl)ccc3OC(F)(F)F)nn12)C(=O)NCCN(C)C [Example 775] | 3.13e-06 |
| CC[C@H](Nc1nc2c(Br)cccc2c2nc(-c3ccc(Cl)cc3OC(F)F)nn12)C(N)=O [Example 698] | 4.68e-08 |
| CSc1cccc(-c2nc3c4ccccc4nc(N[C@@H]4CCCCNC4=O)n3n2)c1 [Example 449] | 1.73e-08 |
| CCCNC(=O)[C@@H](C)Nc1nc2ccccc2c2nc(-c3ccccc3OC(F)(F)F)nn12 [Example 465] | 1.34e-08 |
| COc1cccc(-c2nc3c4ccc(F)cc4nc(N[C@H]4CCNC4=O)n3n2)c1 [Example 149] | 1.81e-07 |

Now for a further compound.
Any idea what IC50 was measured for O=C1NCCNC[C@H]1Nc1nc2ccccc2c2nc(-c3ccc(Br)cc3Cl)nn12 [Example 255] ?
4.98e-08
